system: A549; experiment: MTT anti-tumour cell proliferation in vitro, A549; type: cell-based; settings: Homo sapiens, A549, 36 h, read-out: Cells IC50 (μM) A549
Measurement Label: IC50 (µM)

INSERT INTO measurements (smiles_str, quantitative_result) VALUES
  ('CNC(=O)c1nn(C)c2c1C(C)(C)Cc1cnc(Nc3ccc(N4CCN(C)CC4)cc3)nc1-2', 3.7);

* * *

test system: HCT116; assay: MTT anti-tumour cell proliferation in vitro, HCT116; type: cell-based; conditions: Homo sapiens, HCT-116, 36 h, read-out: Cells IC50 (μM) HCT116
Measurement Label: IC50 (µM)

INSERT INTO results (smiles_str, quantitative_result) VALUES
  ('CNC(=O)c1nn(C)c2c1C(C)(C)Cc1cnc(Nc3ccc(N4CCN(C)CC4)cc3)nc1-2', 1.1);
